# test_target: Voltage-dependent calcium channel subunit alpha-2/delta-1 (Homo sapiens)
# Sequence (P54289 25-956 limits assumed): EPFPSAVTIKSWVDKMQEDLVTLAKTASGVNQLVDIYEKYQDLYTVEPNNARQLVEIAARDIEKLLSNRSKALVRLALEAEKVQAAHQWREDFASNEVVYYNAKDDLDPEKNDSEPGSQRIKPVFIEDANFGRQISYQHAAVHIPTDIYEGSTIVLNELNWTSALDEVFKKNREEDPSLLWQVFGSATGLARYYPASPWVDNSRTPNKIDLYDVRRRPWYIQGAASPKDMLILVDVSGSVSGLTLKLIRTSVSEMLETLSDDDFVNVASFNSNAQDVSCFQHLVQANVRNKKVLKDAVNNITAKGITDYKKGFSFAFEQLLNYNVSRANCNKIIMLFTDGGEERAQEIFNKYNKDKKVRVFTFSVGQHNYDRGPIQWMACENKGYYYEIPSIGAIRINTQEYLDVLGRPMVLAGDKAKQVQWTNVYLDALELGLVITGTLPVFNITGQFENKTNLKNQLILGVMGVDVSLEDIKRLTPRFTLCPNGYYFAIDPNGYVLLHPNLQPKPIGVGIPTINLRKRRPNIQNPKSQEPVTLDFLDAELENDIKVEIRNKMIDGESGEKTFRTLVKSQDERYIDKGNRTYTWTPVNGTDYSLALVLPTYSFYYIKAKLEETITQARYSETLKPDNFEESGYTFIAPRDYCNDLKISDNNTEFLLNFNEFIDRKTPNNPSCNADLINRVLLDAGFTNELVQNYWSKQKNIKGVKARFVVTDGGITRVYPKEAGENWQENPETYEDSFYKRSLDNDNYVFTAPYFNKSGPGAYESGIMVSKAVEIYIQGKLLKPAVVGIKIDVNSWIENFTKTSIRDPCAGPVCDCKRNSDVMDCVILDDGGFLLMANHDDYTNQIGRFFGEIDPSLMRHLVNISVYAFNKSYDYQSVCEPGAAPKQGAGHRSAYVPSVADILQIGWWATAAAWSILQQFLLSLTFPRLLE
# Sequence (P54289 957-1103 limits assumed): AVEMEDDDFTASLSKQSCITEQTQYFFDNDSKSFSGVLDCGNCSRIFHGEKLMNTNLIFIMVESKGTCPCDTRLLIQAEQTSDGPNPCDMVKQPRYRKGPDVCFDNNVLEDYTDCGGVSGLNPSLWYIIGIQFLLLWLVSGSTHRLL
# procedure_text: Binding affinity for huamn alpha2-delta1 subunit of voltage gated calcium channel over-expressed in A710 cell membranes using [3H]-gabapentin
parameter_measured: pIC50
API: returns pIC50 as number; meaning -log10 of concentration in mol/L.

Here are 3 molecules together with their reported answers.
>>> print(df.to_string())
                            compound_string                               test_target  quantitative_readout
0  CCOc1ccc(-n2c(C)c3c(C)nnc(-c4ccc(OC)cc4OC)c3c2C)cc1  Voltage-dependent calcium channel subunit alpha-2/delta-1 (Homo sapiens)                  6.22
1       CCOc1ccccc1-n1c(C)c2c(C)nnc(C)c2c1C  Voltage-dependent calcium channel subunit alpha-2/delta-1 (Homo sapiens)                  5.73
2  CCOc1ccc(-n2c(C)c3c(C)nnc(-c4ccccc4OC)c3c2C)cc1  Voltage-dependent calcium channel subunit alpha-2/delta-1 (Homo sapiens)                  6.13

Data request: Return pIC50 measured with Voltage-dependent calcium channel subunit alpha-2/delta-1 (Homo sapiens) given this molecule: CCOc1ccc(-n2c(C)c3c(C)nnc(-c4ccc(-c5ccccc5)cc4)c3c2C)cc1
Data returned: 5.90
